# conditions.used: in acetonitrile, 293.15 K
attribute.measured: solubility (mole fraction)

(I) Nc1cccc2c(N)cccc12
(II) Nc1cccc2cccc(N)c12
Problem: Would you mind telling me which has the lower recorded solubility (mole fraction) between I and II ? Refer to your chosen item by its label in the answer.
Solution: I

----------
# conditions.used: in ethyl acetate, 303.15 K
attribute.measured: solubility (mole fraction)

(I) Nc1cccc2cccc(N)c12
(II) Nc1cccc2c(N)cccc12
Problem: Would you mind telling me which has the lower recorded solubility (mole fraction) between I and II ? Refer to your chosen item by its label in the answer.
Solution: II

----------
# conditions.used: in acetonitrile, 273.15 K
attribute.measured: solubility (mole fraction)

(P) Nc1cccc2cccc(N)c12
(Q) Nc1cccc2c(N)cccc12
Problem: Of the two listed items, P and Q , which carries the larger solubility (mole fraction) figure? Refer to your chosen item by its label in the answer.
Solution: P
(P: 0.0518, Q: 0.00186)

----------
# conditions.used: in methanol, 283.15 K
attribute.measured: solubility (mole fraction)

(a) Nc1cccc2cccc(N)c12
(b) Nc1cccc2c(N)cccc12
Problem: Of the two listed items, a and b , which carries the larger solubility (mole fraction) figure? Refer to your chosen item by its label in the answer.
Solution: a

----------
# conditions.used: in acetonitrile, 303.15 K
attribute.measured: solubility (mole fraction)

(a) Nc1cccc2c(N)cccc12
(b) Nc1cccc2cccc(N)c12
Problem: Of the two listed items, a and b , which carries the larger solubility (mole fraction) figure? Refer to your chosen item by its label in the answer.
Solution: b

----------
# conditions.used: in ethyl acetate, 298.15 K
attribute.measured: solubility (mole fraction)

(I) Nc1cccc2c(N)cccc12
(II) Nc1cccc2cccc(N)c12
Problem: Would you mind telling me which has the lower recorded solubility (mole fraction) between I and II ? Refer to your chosen item by its label in the answer.
Solution: I

----------
# conditions.used: in isopropanol, 298.15 K
attribute.measured: solubility (mole fraction)

(A) Nc1cccc2cccc(N)c12
(B) Nc1cccc2c(N)cccc12
Problem: Of the two listed items, A and B , which carries the larger solubility (mole fraction) figure? Refer to your chosen item by its label in the answer.
Solution: A

----------
# conditions.used: in methanol, 293.15 K
attribute.measured: solubility (mole fraction)

(P) Nc1cccc2c(N)cccc12
(Q) Nc1cccc2cccc(N)c12
Problem: Of the two listed items, P and Q , which carries the larger solubility (mole fraction) figure? Refer to your chosen item by its label in the answer.
Solution: Q

----------
# conditions.used: in toluene, 273.15 K
attribute.measured: solubility (mole fraction)

(A) Nc1cccc2cccc(N)c12
(B) Nc1cccc2c(N)cccc12
Problem: Would you mind telling me which has the lower recorded solubility (mole fraction) between A and B ? Refer to your chosen item by its label in the answer.
Solution: B
(B: 0.000262, A: 0.0423)

----------
# conditions.used: in isopropanol, 288.15 K
attribute.measured: solubility (mole fraction)

(A) Nc1cccc2cccc(N)c12
(B) Nc1cccc2c(N)cccc12
Problem: Of the two listed items, A and B , which carries the larger solubility (mole fraction) figure? Refer to your chosen item by its label in the answer.
Solution: A
(A: 0.0407, B: 0.000807)

----------
# conditions.used: in toluene, 303.15 K
attribute.measured: solubility (mole fraction)

(I) Nc1cccc2cccc(N)c12
(II) Nc1cccc2c(N)cccc12
Problem: Of the two listed items, I and II , which carries the larger solubility (mole fraction) figure? Refer to your chosen item by its label in the answer.
Solution: I
(I: 0.138, II: 0.00102)

----------
# conditions.used: in n-propanol, 298.15 K
attribute.measured: solubility (mole fraction)

(P) Nc1cccc2c(N)cccc12
(Q) Nc1cccc2cccc(N)c12
Problem: Of the two listed items, P and Q , which carries the larger solubility (mole fraction) figure? Refer to your chosen item by its label in the answer.
Solution: Q

----------
# conditions.used: in toluene, 278.15 K
attribute.measured: solubility (mole fraction)

(P) Nc1cccc2cccc(N)c12
(Q) Nc1cccc2c(N)cccc12
Problem: Would you mind telling me which has the lower recorded solubility (mole fraction) between P and Q ? Refer to your chosen item by its label in the answer.
Solution: Q

----------
# conditions.used: in ethyl acetate, 278.15 K
attribute.measured: solubility (mole fraction)

(P) Nc1cccc2c(N)cccc12
(Q) Nc1cccc2cccc(N)c12
Problem: Would you mind telling me which has the lower recorded solubility (mole fraction) between P and Q ? Refer to your chosen item by its label in the answer.
Solution: P
(P: 0.00487, Q: 0.091)

----------
# conditions.used: in ethyl acetate, 283.15 K
attribute.measured: solubility (mole fraction)

(I) Nc1cccc2cccc(N)c12
(II) Nc1cccc2c(N)cccc12
Problem: Would you mind telling me which has the lower recorded solubility (mole fraction) between I and II ? Refer to your chosen item by its label in the answer.
Solution: II
(II: 0.00569, I: 0.107)

----------
# conditions.used: in n-propanol, 283.15 K
attribute.measured: solubility (mole fraction)

(A) Nc1cccc2cccc(N)c12
(B) Nc1cccc2c(N)cccc12
Problem: Of the two listed items, A and B , which carries the larger solubility (mole fraction) figure? Refer to your chosen item by its label in the answer.
Solution: A

----------
# conditions.used: in methanol, 313.15 K
attribute.measured: solubility (mole fraction)

(A) Nc1cccc2cccc(N)c12
(B) Nc1cccc2c(N)cccc12
Problem: Would you mind telling me which has the lower recorded solubility (mole fraction) between A and B ? Refer to your chosen item by its label in the answer.
Solution: B

----------
# conditions.used: in acetonitrile, 288.15 K
attribute.measured: solubility (mole fraction)

(P) Nc1cccc2cccc(N)c12
(Q) Nc1cccc2c(N)cccc12
Problem: Would you mind telling me which has the lower recorded solubility (mole fraction) between P and Q ? Refer to your chosen item by its label in the answer.
Solution: Q

----------
# conditions.used: in methanol, 298.15 K
attribute.measured: solubility (mole fraction)

(I) Nc1cccc2cccc(N)c12
(II) Nc1cccc2c(N)cccc12
Problem: Of the two listed items, I and II , which carries the larger solubility (mole fraction) figure? Refer to your chosen item by its label in the answer.
Solution: I
(I: 0.0467, II: 0.0024)

----------
# conditions.used: in toluene, 288.15 K
attribute.measured: solubility (mole fraction)

(P) Nc1cccc2c(N)cccc12
(Q) Nc1cccc2cccc(N)c12
Problem: Of the two listed items, P and Q , which carries the larger solubility (mole fraction) figure? Refer to your chosen item by its label in the answer.
Solution: Q
(Q: 0.0803, P: 0.00056)

----------
# conditions.used: in isopropanol, 313.15 K
attribute.measured: solubility (mole fraction)

(I) Nc1cccc2c(N)cccc12
(II) Nc1cccc2cccc(N)c12
Problem: Would you mind telling me which has the lower recorded solubility (mole fraction) between I and II ? Refer to your chosen item by its label in the answer.
Solution: I

----------
# conditions.used: in acetonitrile, 308.15 K
attribute.measured: solubility (mole fraction)

(I) Nc1cccc2c(N)cccc12
(II) Nc1cccc2cccc(N)c12
Problem: Would you mind telling me which has the lower recorded solubility (mole fraction) between I and II ? Refer to your chosen item by its label in the answer.
Solution: I
(I: 0.00834, II: 0.197)

----------
# conditions.used: in isopropanol, 303.15 K
attribute.measured: solubility (mole fraction)

(P) Nc1cccc2c(N)cccc12
(Q) Nc1cccc2cccc(N)c12
Problem: Of the two listed items, P and Q , which carries the larger solubility (mole fraction) figure? Refer to your chosen item by its label in the answer.
Solution: Q
(Q: 0.0688, P: 0.00126)

----------
# conditions.used: in toluene, 298.15 K
attribute.measured: solubility (mole fraction)

(A) Nc1cccc2c(N)cccc12
(B) Nc1cccc2cccc(N)c12
Problem: Of the two listed items, A and B , which carries the larger solubility (mole fraction) figure? Refer to your chosen item by its label in the answer.
Solution: B

----------
# conditions.used: in isopropanol, 293.15 K
attribute.measured: solubility (mole fraction)

(1) Nc1cccc2c(N)cccc12
(2) Nc1cccc2cccc(N)c12
Problem: Of the two listed items, 1 and 2 , which carries the larger solubility (mole fraction) figure? Refer to your chosen item by its label in the answer.
Solution: 2

----------
# conditions.used: in methanol, 303.15 K
attribute.measured: solubility (mole fraction)

(1) Nc1cccc2c(N)cccc12
(2) Nc1cccc2cccc(N)c12
Problem: Of the two listed items, 1 and 2 , which carries the larger solubility (mole fraction) figure? Refer to your chosen item by its label in the answer.
Solution: 2
(2: 0.0551, 1: 0.00278)

----------
# conditions.used: in n-propanol, 313.15 K
attribute.measured: solubility (mole fraction)

(P) Nc1cccc2c(N)cccc12
(Q) Nc1cccc2cccc(N)c12
Problem: Would you mind telling me which has the lower recorded solubility (mole fraction) between P and Q ? Refer to your chosen item by its label in the answer.
Solution: P

----------
# conditions.used: in toluene, 283.15 K
attribute.measured: solubility (mole fraction)

(a) Nc1cccc2cccc(N)c12
(b) Nc1cccc2c(N)cccc12
Problem: Of the two listed items, a and b , which carries the larger solubility (mole fraction) figure? Refer to your chosen item by its label in the answer.
Solution: a
(a: 0.0654, b: 0.000445)
